Measured recombinant barcode read abundance (log10) values are reported for all entries that follow.
TEST DETAILS: recombinant barcode read abundance after kanamycin selection (control-corrected) (log10(CPM+1)); higher = more efficient recombination; sequences stand for … in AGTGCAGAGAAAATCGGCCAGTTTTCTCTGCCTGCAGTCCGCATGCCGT…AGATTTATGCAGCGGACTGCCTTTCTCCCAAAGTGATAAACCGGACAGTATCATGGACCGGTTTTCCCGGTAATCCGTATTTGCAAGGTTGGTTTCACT; site = the 11-nt target

> print(dat)
                                   sequence  result
1  GTGCACACTTGGGTTCTAACCTGTTGCGG (site GTGCACACTCC)    2.44

Briefly, recombinant barcode read abundance (log10) measured for TCTTAGACTTGGGTTCTAACCTGTTGCGG (site TCTTAGACTCC) : 1.47

Briefly, recombinant barcode read abundance (log10) measured for TAGTCCTCTTGGGTTCTAACCTGTTGCTA (site TAGTCCTCTCA) : 0.0797

Briefly, recombinant barcode read abundance (log10) measured for CTTCGTCCTTGGGTTCTAACCTGTTGCGT (site CTTCGTCCTAG) : 0.126

Briefly, recombinant barcode read abundance (log10) measured for GGGGCCTCTTGGGTTCTAACCTGTTGCTT (site GGGGCGTCTAA) : 0.225

Briefly, recombinant barcode read abundance (log10) measured for AGCCATCCTTGGGTTCTAACCTGTTGCAT (site AGCCATCCTAT) : 0.723

###

Measured recombinant barcode read abundance (log10) values are reported for all entries that follow.
TEST DETAILS: recombinant barcode read abundance after kanamycin selection (control-corrected) (log10(CPM+1)); higher = more efficient recombination; sequences stand for … in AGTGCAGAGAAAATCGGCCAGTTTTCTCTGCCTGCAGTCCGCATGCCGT…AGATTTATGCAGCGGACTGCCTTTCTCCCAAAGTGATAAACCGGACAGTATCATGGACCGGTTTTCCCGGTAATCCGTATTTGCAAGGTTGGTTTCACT; site = the 11-nt target

> print(dat)
                                   sequence  result
1  TCGAGGCCTTGGGTTCTAACCTGTTGCGG (site TAGAGCCCTCC)   0.724
2  AGGTCCACTTGGGTTCTAACCTGTTGCTG (site AGGTCCACTCA)    1.31
3  ATCAAGACTTGGGTTCTAACCTGTTGCCT (site ATGAAGACTAG)   0.252
4  AATTAGACTTGGGTTCTAACCTGTTGCCT (site CATTAGACTAG)   0.152
5  CAAAGTCCTTGGGTTCTAACCTGTTGCGT (site CAAAGTCCTAA)   0.128

Briefly, recombinant barcode read abundance (log10) measured for GTATCTACTTGGGTTCTAACCTGTTGCCT (site GGATCTACTAG) : 0.25

Briefly, recombinant barcode read abundance (log10) measured for AGGCGTCCTTGGGTTCTAACCTGTTGCCT (site AGGCGTCCTCG) : 0.249

Briefly, recombinant barcode read abundance (log10) measured for TCCGTCCCTTGGGTTCTAACCTGTTGCTG (site TCCGTACCTCG) : 0.0427

Briefly, recombinant barcode read abundance (log10) measured for TCCCATGCTTGGGTTCTAACCTGTTGCCT (site TCCCATACTAG) : 0.19

Briefly, recombinant barcode read abundance (log10) measured for CGTGAGACTTGGGTTCTAACCTGTTGCCT (site CGTGAGACTAG) : 1.48

###

TEST DETAILS: recombinant UMI read abundance after kanamycin selection (control-corrected) (log10(CPM+1)); higher = more efficient recombination; extreme values may be limits of the assay; sequences stand for … in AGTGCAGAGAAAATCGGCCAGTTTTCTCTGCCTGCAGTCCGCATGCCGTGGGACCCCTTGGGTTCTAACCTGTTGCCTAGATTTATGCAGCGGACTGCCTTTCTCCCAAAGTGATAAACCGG…AGGTTGGTTTCACT; site = the 11-nt donor
Lab note: anything with recombinant UMI read abundance (log10) at or over 0.5 counts as Criterion met; the rest go in Criterion not met.

> print(dat)
                                   sequence  assigned.category
1  CAACTCACATGGACCGGTTTTCCCGGTAATCCGTATTTGGG (site CAATTCACTCC)  Criterion not met
2  TTATGTCCATGGACCGGTTTTCCCGGTAATCCGTATTTGTA (site TTATGTCCTTA)  Criterion not met
3  CGCCGTCCATGGACCGGTTTTCCCGGTAATCCGTATTTGCT (site CGCCGTGCTAG)  Criterion not met

Ask | I'd appreciate it if you could say whether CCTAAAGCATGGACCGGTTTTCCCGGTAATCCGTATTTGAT (site CCTAAACCTAT) has recombinant UMI read abundance (log10) at least equal to 0.5.
Reply | Criterion not met

###

TEST DETAILS: recombinant UMI read abundance after kanamycin selection (control-corrected) (log10(CPM+1)); higher = more efficient recombination; extreme values may be limits of the assay; sequences stand for … in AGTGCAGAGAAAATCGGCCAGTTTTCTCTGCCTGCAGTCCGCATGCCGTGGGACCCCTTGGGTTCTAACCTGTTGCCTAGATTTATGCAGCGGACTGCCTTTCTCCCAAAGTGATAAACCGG…AGGTTGGTTTCACT; site = the 11-nt donor
MEASUREMENT NAME: recombinant UMI read abundance (log10)
Answer with a number only.

> print(dat)
                                   sequence  result.number
1  GCAATATCATGGACCGGTTTTCCCGGTAATCCGTATTTGCA (site GCAATATCTTG)           1.75

Briefly, recombinant UMI read abundance (log10) measured for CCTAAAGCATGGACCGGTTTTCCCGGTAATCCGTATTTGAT (site CCTAAAACTAT) : 0

Briefly, recombinant UMI read abundance (log10) measured for GGTCGAGCATGGACCGGTTTTCCCGGTAATCCGTATTTGCA (site GATCGAGCTTG) : 0.273

Briefly, recombinant UMI read abundance (log10) measured for GCCTAGCCATGGACCGGTTTTCCCGGTAATCCGTATTTGCC (site TCCTAGCCTGG) : 0

Briefly, recombinant UMI read abundance (log10) measured for CGGGAGTCATGGACCGGTTTTCCCGGTAATCCGTATTTGCA (site CGGGAGTCTTG) : 2.89

###

Measured recombinant UMI read abundance (log10) values are reported for all entries that follow.
TEST DETAILS: recombinant UMI read abundance after kanamycin selection (control-corrected) (log10(CPM+1)); higher = more efficient recombination; extreme values may be limits of the assay; sequences stand for … in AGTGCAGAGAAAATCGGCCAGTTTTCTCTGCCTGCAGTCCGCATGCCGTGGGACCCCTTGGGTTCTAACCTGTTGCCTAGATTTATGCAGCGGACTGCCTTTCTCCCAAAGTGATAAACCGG…AGGTTGGTTTCACT; site = the 11-nt donor
Answer with a number only.

> print(dat)
                                   sequence  result.number
1  CGGTTTACATGGACCGGTTTTCCCGGTAATCCGTATTTGCT (site CAGTTTACTAG)              0
2  GTTCTAGCATGGACCGGTTTTCCCGGTAATCCGTATTTGCA (site GTTCAAGCTTG)              0
3  CACTCGTCATGGACCGGTTTTCCCGGTAATCCGTATTTGCC (site CACTCCTCTGG)              0

As a next step, examine the sequence that follows.
Briefly, recombinant UMI read abundance (log10) measured for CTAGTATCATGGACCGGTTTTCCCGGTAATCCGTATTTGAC (site GTAGTATCTGT) : 0

###

TEST DETAILS: recombinant UMI read abundance after kanamycin selection (control-corrected) (log10(CPM+1)); higher = more efficient recombination; extreme values may be limits of the assay; sequences stand for … in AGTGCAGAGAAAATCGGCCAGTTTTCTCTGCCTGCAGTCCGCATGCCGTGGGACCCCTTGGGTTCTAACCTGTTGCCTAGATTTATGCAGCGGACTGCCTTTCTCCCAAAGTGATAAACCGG…AGGTTGGTTTCACT; site = the 11-nt donor
Lab note: anything with recombinant UMI read abundance (log10) at or over 0.05 counts as 1.0; the rest go in 0.0.

Consider the following illustrative entries.
> print(dat)
                                    sequence  assigned.category
 1  GGAGTGACATGGACCGGTTTTCCCGGTAATCCGTATTTGGT (site GGAGTGTCTAC)                1.0
 2  TGCTAATCATGGACCGGTTTTCCCGGTAATCCGTATTTGCT (site TGCTAATCTAG)                1.0
 3  CCGTTATCATGGACCGGTTTTCCCGGTAATCCGTATTTGTG (site CCGTTAACTCA)                0.0
 4  TCGCGAACATGGACCGGTTTTCCCGGTAATCCGTATTTGTA (site TCGCGAACTTA)                1.0
 5  TTAGTAACATGGACCGGTTTTCCCGGTAATCCGTATTTGAC (site TTAGTAACTGT)                1.0
 6  GGAAGATCATGGACCGGTTTTCCCGGTAATCCGTATTTGAA (site GGAAGATCTTT)                1.0
 7  CCAGCGCCATGGACCGGTTTTCCCGGTAATCCGTATTTGTG (site CAAGCGCCTCA)                0.0
 8  AGCAAGACATGGACCGGTTTTCCCGGTAATCCGTATTTGCA (site AGTAAGACTTG)                1.0
 9  ATCTCAGCATGGACCGGTTTTCCCGGTAATCCGTATTTGGG (site AACTCAGCTCC)                0.0
10  GGGGCTCCATGGACCGGTTTTCCCGGTAATCCGTATTTGCA (site GGGGCTCCTTG)                1.0

Ask | I'd appreciate it if you could say whether CAAGCAGCATGGACCGGTTTTCCCGGTAATCCGTATTTGTT (site CAAGCAGCTAT) has recombinant UMI read abundance (log10) at least equal to 0.05.
Reply | 1.0

Ask | I'd appreciate it if you could say whether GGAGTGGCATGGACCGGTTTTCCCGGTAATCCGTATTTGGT (site GGCGTGGCTAC) has recombinant UMI read abundance (log10) at least equal to 0.05.
Reply | 0.0
